The origin of these recorded values is the supplement of paper PMC9170038.

Tested on: MS2 coat protein
Assay: apparent KD of MS2 coat protein; designed switch direction (-1 OFF switch, 1 ON switch): -1; higher = weaker reporter binding
Details: input ligand: none
Label FALSE if apparent KD of MS2 coat protein falls below 20 nM; label TRUE in every other case.

Q: Check the entry CAGUACUGAGGAUAUACAUGAGGAUCACCCAUGUGUUCCAGCUAGGAAACUAGCAUAAGUAGAAGGCAGUACUG [salish99_ex3_r3_091x] (Eterna round: R96, puzzle: Exclusion 3) : does apparent KD of MS2 coat protein equal or exceed 20 nM?
Ans: TRUE

Q: Check the entry AAAGGGCGUGUGAGGAUAUCGACCCGACUUCCAGUCGAGAAGGCACAUGAGGAUCACCCAUGUGAUGACAGCGA [BmEX4 B.8] (Eterna round: R97, puzzle: Brourd's mod of Exclusion 4) : does apparent KD of MS2 coat protein equal or exceed 20 nM?
Ans: FALSE

Q: Check the entry UCUGCCGCCGUGAGGAUAUGCCCGAAAAAACGCGGGCAGAAGGCACAUGAGGAUCACCCAUGUCCCGCGGUUUU [salish99_bmx4_r4_136] (Eterna round: R97, puzzle: Brourd's mod of Exclusion 4) : does apparent KD of MS2 coat protein equal or exceed 20 nM?
Ans: FALSE

Q: Check the entry GUUUGCACGCUGCGGUCCUACAUGAGGAUCACCCAUGUGGUCUGGUGGCGUGGGUCGCCGGACUUGGCUCGUCUUGA [salish99_S_TOV1_R5_038] (Eterna round: R97, puzzle: Sensor, turn-off variant 1) : does apparent KD of MS2 coat protein equal or exceed 20 nM?
Ans: FALSE

Q: Check the entry AGGUGUAGAGGAUAUACUGCAAAGCACAUGAGGAUCACCCAUGUCCCUCUAUGAAAUUAAGUAGAAGGCUACACCA [Omei Ex5 C5] (Eterna round: R97, puzzle: Exclusion 5) : does apparent KD of MS2 coat protein equal or exceed 20 nM?
Ans: TRUE

Q: Check the entry UAAUGUAUAUAGGAUAUCUAGCUGGUAACAGCUAGAGAAGGAUGUACAUGAGGAUCACCCAUGUAAAUCGAUCA [Ex6/11-A2] (Eterna round: R97, puzzle: Exclusion 6) : does apparent KD of MS2 coat protein equal or exceed 20 nM?
Ans: TRUE

Q: Check the entry GAUCCGUUAGGAUAUGCGGGUGUCACCAGAGUGAUAGCCUCGCAGAAGGAACAUGAGGAUCACCCAUGUAGCAA [Eternabot (L1) Solution 92] (Eterna round: R97, puzzle: Exclusion 4) : does apparent KD of MS2 coat protein equal or exceed 20 nM?
Ans: TRUE

Q: Check the entry CUUUAGUGAGGAUAUGUGGCUUCGAUCGUGAGAUCGAGGCUACAGAAGGCACAUGAGGAUCACCCAUGUUCCUC [jl-ex4-4.01 salish99 mod] (Eterna round: R97, puzzle: Exclusion 4) : does apparent KD of MS2 coat protein equal or exceed 20 nM?
Ans: TRUE

Q: Check the entry CCAUGGGAGCGAGGAUAUAGCCCAUGGGAAGAGCUAGAAGGCGCUGACAUGAGGAUCACCCAUGUGUUCAUGAGGAGGUGGACA (Eterna round: R96, puzzle: Exclusion NG 1) : does apparent KD of MS2 coat protein equal or exceed 20 nM?
Ans: TRUE

Q: Check the entry CCCUGACAUGAGGAUCACCCAUGUUAGGAUAUAACAUUUGACACGACAGUGUGAAGUGUUAGAAGGGAUAUGGG [-28.4, -26.7 kcal, A 31%] (Eterna round: R97, puzzle: Exclusion 1) : does apparent KD of MS2 coat protein equal or exceed 20 nM?
Ans: TRUE

Q: Check the entry AAGAUGCGCGCAGGAUAUGGAGAGAAAGAAAGACCAGAAGGGCGGGUCACACAACAUGAGGAUCACCCAUGUGUGUGUUGCGAA [snuffleupagus] (Eterna round: R96, puzzle: Exclusion NG 1) : does apparent KD of MS2 coat protein equal or exceed 20 nM?
Ans: FALSE

Q: Check the entry GAAUAGGCAGGAUAUACAUGAGGAUCACCCAUGUGCUUGCGAUAGGCACGUGAACAACGUAGAAGGGCCUUAAC [ChP 13.04.2015 #12] (Eterna round: R96, puzzle: Exclusion 3) : does apparent KD of MS2 coat protein equal or exceed 20 nM?
Ans: TRUE
